Source listed as patent US10173968B2.

Test system: E. coli MC1061
assay.details: Antibacterial MIC, double-dilution method
Assay type: cell-based
conditions.used: Escherichia coli, strain G, Gram-negative, range 0.5 to 500 μM, read-out: MIC
Assignment: determine reported MIC for the given compounds.

Example results:
1) CC1(C)S[C@@H]2[C@H](NC(=O)[C@H](N)c3ccccc3)C(=O)N2[C@H]1C(=O)O [AMP, ampicillin, reference compound]	> 250 µM
2) Cl.N=C(N)N/N=C/c1ccc(-c2ccc(/C=N/Nc3ccc(Cl)cc3)cc2)cc1 [Compound 7Ad, monohydrochloride]	> 500 µM

Below are some compounds; for each one, tell me its MIC.
1. Cl.N#Cc1ccc(N/N=C/c2ccc(-c3ccc(/C=N/NC(=N)N)cc3)cc2)cc1 [Compound 7Ae, monohydrochloride]
2. C/C(=N\NC(=N)N)c1ccc(Oc2ccc(/C(C)=N/NC(=N)N)cc2)cc1.Cl.Cl [Compound 4E, dihydrochloride]
3. C/C(=N\NC(=N)N)c1ccc2c(c1)Cc1cc(/C(C)=N/NC(=N)N)ccc1-2.Cl.Cl [Compound 4F, dihydrochloride]
4. C/C(=N\NC(=N)N)c1ccc(CCc2ccc(/C(C)=N/NC(=N)N)cc2)cc1.Cl.Cl [Compound 4D, dihydrochloride]
5. C/C(=N\NC(=N)N)c1ccc(Cc2ccc(/C(C)=N/NC(=N)N)cc2)cc1.Cl.Cl [Compound 4C, dihydrochloride]
6. C/C(=N\NC(=N)N)c1cccc(/C(C)=N/NC(=N)N)c1.Cl.Cl [Compound 4H, dihydrochloride]
7. Cl.N=C(N)N/N=C/c1ccc(-c2ccc(/C=N/Nc3ccc(Cl)cc3Cl)cc2)cc1 [Compound 7Ag, hydrochloride]

1: 62.5 to 125 µM; 2: 125 µM; 3: 500 µM; 4: > 500 µM; 5: > 500 µM; 6: > 500 µM; 7: > 500 µM

For each of the compounds below, state MIC.
1. C/C(=N\NC(=N)N)c1ccc(/C(C)=N/NC(=N)N)cc1.Cl.Cl [Compound 4G, dihydrochloride]
2. Cl.N=C(N)N/N=C/c1ccc(-c2ccc(C=NNc3ccccc3Cl)cc2)cc1 (mixture of isomers) [Compound 7Aa, monohydrochloride]
3. Cl.Cl.N=C(N)N/N=C/c1ccc(-c2cccc(/C=N/NC(=N)N)c2)cc1 [Compound 3B, dihydrochloride]
4. Cl.N=C(N)N/N=C/c1ccc(-c2ccc(/C=N/Nc3ccccc3Br)cc2)cc1 [Compound 7Ab, monohydrochloride]
5. NCC[C@H](O)C(=O)N[C@@H]1C[C@H](N)[C@@H](O[C@H]2O[C@H](CN)[C@@H](O)[C@H](O)[C@H]2O)[C@H](O)[C@H]1O[C@H]1O[C@H](CO)[C@@H](O)[C@H](N)[C@H]1O [AMK, amikacin, reference compound]
6. CC1COc2c(N3CCN(C)CC3)c(F)cc3c(=O)c(C(=O)O)cn1c23 (stereo not drawn) [OFX, ofloxacin, reference compound]

["> 500 µM", "> 500 µM", "> 500 µM", "> 500 µM", "31.3 µM", "3.9 to 7.8 µM"]

Provide reported MIC for each item, in the same order as listed.
1. C/C(=N\NC(=N)N)c1ccc(-c2ccc(/C(C)=N/NC(=N)N)cc2)cc1.Cl.Cl [Compound 4A, dihydrochloride]
2. Cl.Cl.N=C(N)N/N=C/c1ccc(-c2ccc(/C=N/NC(=N)N)cc2)cc1 [Compound 3A, dihydrochloride]
3. Cl.N=C(N)N/N=C/c1ccc(-c2ccc(/C=N/Nc3ccc(F)cc3F)cc2)cc1 [Compound 7Af, monohydrochloride]

1: 62.5 µM; 2: > 500 µM; 3: > 500 µM

----------
assay.details: Mammalian cell cytotoxicity, resazurin
Format: cell-based
conditions.used: human; A549, 24 h
measured.property: IC50 at 24 h

Supply reported IC50 at 24 h belonging to this molecule: Cl.N=C(N)N/N=C/c1ccc(-c2ccc(/C=N/Nc3ccc(F)cc3)cc2)cc1 [Compound 7Ac, monohydrochloride] 7.8 to 15.6 µg/mL

----------
assay.details: Mammalian cell cytotoxicity, resazurin
Assay type: cell-based
conditions.used: human, BEAS-2B normal bronchial epithelial cells
I'd be grateful if you could share measured IC50 at 24 h for these entries.

// worked examples, IC50 at 24 h included
1. Cl.Cl.N=C(N)N/N=C/c1ccc(-c2cccc(/C=N/NC(=N)N)c2)cc1 [Compound 3B, dihydrochloride]	7.8 to 15.6 µg/mL
2. Cl.N=C(N)N/N=C/c1ccc(-c2ccc(/C=N/Nc3ccc(Cl)cc3)cc2)cc1 [Compound 7Ad, monohydrochloride]	7.8 to 15.6 µg/mL

Dear colleague, please send me the reported IC50 at 24 h for Cl.N=C(N)N/N=C/c1ccc(-c2ccc(/C=N/Nc3ccc(F)cc3F)cc2)cc1 [Compound 7Af, monohydrochloride] when you can. 7.8 to 15.6 µg/mL

----------
Tested on: C. albicans ATCC 10231
assay.details: Antifungal MIC, CLSI M27-A3 microbroth dilution
Format: cell-based, Candida albicans
conditions.used: Candida albicans, ATCC10231; C. albicans ATCC 10231, resistant to FLC, ITC, and VOR; converted from μg/mL; read-out: MIC
measured.property: MIC (µM)
One number for each entry, in µM.

1) Cl.N=C(N)N/N=C/c1ccc(-c2ccc(/C=N/Nc3ccc(Cl)cc3Cl)cc2)cc1 [Compound 7Ag, hydrochloride]	16.8
2) Cl.Cl.N=C(N)N/N=C/c1ccc(-c2cccc(/C=N/NC(=N)N)c2)cc1 [Compound 3B, dihydrochloride]	9.9
3) C/C(=N\NC(=N)N)c1ccc(CCc2ccc(/C(C)=N/NC(=N)N)cc2)cc1.Cl.Cl [Compound 4D, dihydrochloride]	17.3

Input Cl.N=C(N)N/N=C/c1ccc(-c2ccc(C=NNc3ccccc3Cl)cc2)cc1 (mixture of isomers) [Compound 7Aa, monohydrochloride] , output reported MIC. 4.6

----------
Please provide measured MIC for the entries that follow.
Tested on: K. pneumoniae ATCC 27736
assay.details: Antibacterial MIC, double-dilution method
Assay type: cell-based
conditions.used: Klebsiella pneumoniae, ATCC27736; strain H, Gram-negative; converted from μM; read-out: MIC

The cases that follow already have their MIC on record.
1) C/C(=N\NC(=N)N)c1ccc(/C(C)=N/NC(=N)N)cc1.Cl.Cl	173 µg/mL
2) CC1COc2c(N3CCN(C)CC3)c(F)cc3c(=O)c(C(=O)O)cn1c23 (stereo not drawn) [OFX, ofloxacin, reference compound]	5.6 to 11.3 µg/mL

For each listed entry, give its MIC.
1. Cl.N=C(N)N/N=C/c1ccc(-c2ccc(/C=N/Nc3ccccc3Br)cc2)cc1
2. C/C(=N\NC(=N)N)c1ccc(CCc2ccc(/C(C)=N/NC(=N)N)cc2)cc1.Cl.Cl
3. Cl.Cl.N=C(N)N/N=C/c1ccc(-c2cccc(/C=N/NC(=N)N)c2)cc1
4. Cl.N=C(N)N/N=C/c1ccc(-c2ccc(/C=N/Nc3ccc(F)cc3F)cc2)cc1
5. C/C(=N\NC(=N)N)c1ccc(Cc2ccc(/C(C)=N/NC(=N)N)cc2)cc1.Cl.Cl

1. > 235 µg/mL
2. > 226 µg/mL
3. > 198 µg/mL
4. > 214 µg/mL
5. > 219 µg/mL

----------
Provide the reported MIC of each item.
Tested on: MRSA
assay.details: Antibacterial MIC, double-dilution method
Format: cell-based
conditions.used: Staphylococcus aureus, strain C, Gram-positive, range 0.5 to 500 μM, read-out: MIC

Below, 3 compounds whose answers are already recorded.
1) C/C(=N\NC(=N)N)c1ccc(-c2ccc(/C(C)=N/Nc3ccccc3Cl)cc2)cc1.Cl [Compound 8Aa, hydrochloride]	125 µM
2) C/C(=N\NC(=N)N)c1ccc(/C(C)=N/NC(=N)N)cc1.Cl.Cl [Compound 4G, dihydrochloride]	> 500 µM
3) CC1COc2c(N3CCN(C)CC3)c(F)cc3c(=O)c(C(=O)O)cn1c23 (stereo not shown) [OFX, ofloxacin, reference compound]	1 µM

Turning to the following compound.
Report MIC for C/C(=N\NC(=N)N)c1cccc(/C(C)=N/NC(=N)N)c1.Cl.Cl [Compound 4H, dihydrochloride] > 500 µM

----------
Record form. Attribute: MIC. Fill in for each entry.
Test system: VRE
assay.details: Antibacterial MIC, double-dilution method
Assay type: cell-based
conditions.used: Enterococcus, strain D, Gram-positive, range 0.5 to 500 μM, read-out: MIC

Below: 2 compounds and their reported MIC.
1) Cl.N=C(N)N/N=C/c1ccc(-c2ccc(/C=N/Nc3ccc(Cl)cc3Cl)cc2)cc1 [Compound 7Ag, hydrochloride]	7.8 µM
2) CC1(C)S[C@@H]2[C@H](NC(=O)[C@H](N)c3ccccc3)C(=O)N2[C@H]1C(=O)O [AMP, ampicillin, reference compound]	250 µM

Quick one: give measured MIC for Cl.N#Cc1ccc(N/N=C/c2ccc(-c3ccc(/C=N/NC(=N)N)cc3)cc2)cc1 [Compound 7Ae, monohydrochloride] 2 to 3.9 µM

----------
Test system: C. albicans ATCC 10231
assay.details: Antifungal MIC, CLSI M27-A3 microbroth dilution
Assay type: cell-based, Candida albicans
conditions.used: Candida albicans, ATCC10231; C. albicans ATCC 10231, resistant to FLC, ITC, and VOR; read-out: MIC
Binary call on MIC with cut-off 8 µg/mL: strictly below means label 1, and equality or higher means label 0.

Decide: MIC of Cl.Cl.N=C(N)N/N=C/c1ccc(-c2cccc(/C=N/NC(=N)N)c2)cc1 strictly below 8 µg/mL? label 1
